- assayed system: O-GlcNAcase (Homo sapiens)
- Sequence (O60502 1-916): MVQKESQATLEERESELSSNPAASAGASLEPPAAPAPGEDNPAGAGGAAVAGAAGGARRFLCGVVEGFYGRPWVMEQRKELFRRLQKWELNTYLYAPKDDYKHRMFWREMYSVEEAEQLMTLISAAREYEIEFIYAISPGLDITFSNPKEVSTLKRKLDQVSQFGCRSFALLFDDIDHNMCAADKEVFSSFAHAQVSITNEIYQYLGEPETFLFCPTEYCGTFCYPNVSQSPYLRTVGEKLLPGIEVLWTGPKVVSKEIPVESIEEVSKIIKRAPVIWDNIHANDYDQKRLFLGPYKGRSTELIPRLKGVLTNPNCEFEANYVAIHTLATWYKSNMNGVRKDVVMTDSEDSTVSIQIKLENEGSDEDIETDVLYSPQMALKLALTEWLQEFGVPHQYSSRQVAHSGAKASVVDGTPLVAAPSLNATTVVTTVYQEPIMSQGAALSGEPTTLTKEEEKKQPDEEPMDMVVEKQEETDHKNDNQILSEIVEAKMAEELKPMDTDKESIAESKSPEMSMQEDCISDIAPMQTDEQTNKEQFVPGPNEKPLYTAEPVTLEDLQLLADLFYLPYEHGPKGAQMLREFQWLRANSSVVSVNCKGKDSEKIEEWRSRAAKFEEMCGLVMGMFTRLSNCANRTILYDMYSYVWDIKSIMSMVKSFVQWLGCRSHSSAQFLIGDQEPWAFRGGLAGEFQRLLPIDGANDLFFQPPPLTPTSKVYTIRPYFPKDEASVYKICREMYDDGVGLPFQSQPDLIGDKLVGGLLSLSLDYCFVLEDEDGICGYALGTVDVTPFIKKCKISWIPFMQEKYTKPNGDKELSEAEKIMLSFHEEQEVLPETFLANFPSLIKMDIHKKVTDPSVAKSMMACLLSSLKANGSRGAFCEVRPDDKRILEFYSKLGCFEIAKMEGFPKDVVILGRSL
- experimental details: Michaelis-Menten kinetics of O-GlcNAcase catalyzed hydrolysis of 4-methylumbelliferyl GlcNAc substrate analogues
- Type: biochemical
- study conditions: 37° C., pH 6.5

{"columns": ["compound", "Vmax [E]o (µmol/min/mg)"],
 "data": [
  ["Cc1cc(=O)oc2cc(O[C@@H]3O[C@H](CO)[C@@H](O)[C@H](O)[C@H]3NC(=O)C(F)F)ccc12", 0.16],
  ["CC(=O)N[C@H]1[C@H](Oc2ccc3c(C)cc(=O)oc3c2)O[C@H](CO)[C@@H](O)[C@@H]1O [MuGlcNAc, reference compound]", 0.74],
  ["Cc1cc(=O)oc2cc(O[C@@H]3O[C@H](CO)[C@@H](O)[C@H](O)[C@H]3NC(=O)C(F)(F)F)ccc12", 0.033],
  ["Cc1cc(=O)oc2cc(O[C@@H]3O[C@H](CO)[C@@H](O)[C@H](O)[C@H]3NC(=O)CF)ccc12", 0.60]
]}

* * *

Values of inhibition of O-GlcNAcase, in words reported for O-GlcNAcase (Homo sapiens, UniProt O60502) appear below.

{"columns": ["compound", "inhibition of O-GlcNAcase, in words"],
 "data": [
  ["CCC1=N[C@@H]2[C@@H](O)[C@H](O)[C@@H](CO)O[C@@H]2S1 [Compound 9b]", "potent inhibitors"],
  ["CCCC1=N[C@@H]2[C@@H](O)[C@H](O)[C@@H](CO)O[C@@H]2S1 [Compound 9c]", "potent inhibitors"]
]}

* * *

- assayed system: UniProtKB O60502
- experimental details: Inhibition of O-GlcNAcase, substrate pNP-GlcNAc, Dixon plots
- study conditions: Table 3
value kind: Selectivity Ratio (β-Hexosaminidase KI/O-GlcNAcase KI)

{"columns": ["compound", "test value"],
 "data": [
  ["CC(C)CC(=O)N[C@H]1C(=NOC(=O)Nc2ccccc2)O[C@H](CO)[C@@H](O)[C@@H]1O [Compound 22f]", "≧6"],
  ["CCCCC(=O)NC1C(=NOC(=O)Nc2ccccc2)OC(CO)C(O)C1O (stereo not drawn) [Compound 22c]", 6],
  ["CCC(=O)N[C@H]1C(=NOC(=O)Nc2ccccc2)O[C@H](CO)[C@@H](O)[C@@H]1O [Compound 22a]", 1],
  ["CCCC(=O)N[C@H]1C(=NOC(=O)Nc2ccccc2)O[C@H](CO)[C@@H](O)[C@@H]1O [Compound 22b]", 11],
  ["CC(C)C(=O)N[C@H]1C(=NOC(=O)Nc2ccccc2)O[C@H](CO)[C@@H](O)[C@@H]1O [Compound 22e]", 2],
  ["CCCCCC(=O)N[C@H]1C(=NOC(=O)Nc2ccccc2)O[C@H](CO)[C@@H](O)[C@@H]1O [Compound 22d]", "≧5"]
]}

* * *

- assayed system: O-GlcNAcase (Homo sapiens)
- Sequence (O60502 1-916): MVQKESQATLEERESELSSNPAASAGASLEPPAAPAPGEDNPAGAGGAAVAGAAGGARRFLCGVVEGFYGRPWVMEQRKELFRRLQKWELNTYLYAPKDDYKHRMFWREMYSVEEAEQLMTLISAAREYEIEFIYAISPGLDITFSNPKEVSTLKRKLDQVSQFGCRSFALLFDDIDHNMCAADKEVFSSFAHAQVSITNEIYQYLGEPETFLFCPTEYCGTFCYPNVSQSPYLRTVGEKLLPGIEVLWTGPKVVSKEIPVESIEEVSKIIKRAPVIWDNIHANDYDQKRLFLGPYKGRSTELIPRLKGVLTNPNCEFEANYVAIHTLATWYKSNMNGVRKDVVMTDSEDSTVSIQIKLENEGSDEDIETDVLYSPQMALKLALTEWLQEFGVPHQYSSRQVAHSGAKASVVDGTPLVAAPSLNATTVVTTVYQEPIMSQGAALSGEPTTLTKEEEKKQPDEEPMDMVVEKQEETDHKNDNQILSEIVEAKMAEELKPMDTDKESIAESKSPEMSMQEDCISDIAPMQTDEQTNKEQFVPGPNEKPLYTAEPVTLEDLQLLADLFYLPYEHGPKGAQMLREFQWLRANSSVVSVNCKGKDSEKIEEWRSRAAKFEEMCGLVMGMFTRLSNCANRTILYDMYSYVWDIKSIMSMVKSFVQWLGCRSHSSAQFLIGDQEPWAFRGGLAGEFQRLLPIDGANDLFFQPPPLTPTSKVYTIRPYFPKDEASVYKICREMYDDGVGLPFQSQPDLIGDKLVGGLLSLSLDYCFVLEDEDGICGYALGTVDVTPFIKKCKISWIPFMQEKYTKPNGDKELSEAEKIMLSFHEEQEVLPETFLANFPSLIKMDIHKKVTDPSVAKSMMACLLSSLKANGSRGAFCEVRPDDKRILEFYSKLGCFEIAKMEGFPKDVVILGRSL
- experimental details: Michaelis-Menten kinetics of O-GlcNAcase catalyzed hydrolysis of 4-methylumbelliferyl GlcNAc substrate analogues
- Type: biochemical
- study conditions: 37° C., pH 6.5
- Text: For O-GlcNAcase the value of Vmax[E]0/KM is also dependant on the extent of fluorine substitution but the slope is more shallow (ρ=−0.42±0.08, FIG. 2C).

{"columns": ["molecule", "assayed system", "reading unit", "Km"],
 "data": [
  ["CC(=O)N[C@H]1[C@H](Oc2ccc3c(C)cc(=O)oc3c2)O[C@H](CO)[C@@H](O)[C@@H]1O [MuGlcNAc, reference compound]", "O-GlcNAcase (Homo sapiens)", "µM", 430],
  ["Cc1cc(=O)oc2cc(O[C@@H]3O[C@H](CO)[C@@H](O)[C@H](O)[C@H]3NC(=O)C(F)(F)F)ccc12", "O-GlcNAcase (Homo sapiens)", "µM", 380],
  ["Cc1cc(=O)oc2cc(O[C@@H]3O[C@H](CO)[C@@H](O)[C@H](O)[C@H]3NC(=O)CF)ccc12", "O-GlcNAcase (Homo sapiens)", "µM", 490],
  ["Cc1cc(=O)oc2cc(O[C@@H]3O[C@H](CO)[C@@H](O)[C@H](O)[C@H]3NC(=O)C(F)F)ccc12", "O-GlcNAcase (Homo sapiens)", "µM", 450]
]}

* * *

- assayed system: O-GlcNAcase (Homo sapiens, UniProt O60502)
- study conditions: read-out: KI, O-GlcNAcase; pH 6.5
pKi: −log10 of the molar value.
value kind: pKi

{"columns": ["compound", "assayed system", "test value"],
 "data": [
  ["CN(N=O)C(=O)N[C@H]1C(O)O[C@H](CO)[C@@H](O)[C@@H]1O (mixture of isomers)", "O-GlcNAcase (Homo sapiens, UniProt O60502)", 2.82]
]}

* * *

Entries with reported selectivity for O-GlcNAcase over β-hexosaminidase, in words on O-GlcNAcase (Homo sapiens)
value kind: selectivity for O-GlcNAcase over β-hexosaminidase, in words

{"columns": ["compound", "test value"],
 "data": [
  ["CC(C)C1=N[C@@H]2[C@@H](O)[C@H](O)[C@@H](CO)O[C@@H]2S1 [Compound 9f]", "remarkable selectivity"],
  ["CCCC1=N[C@@H]2[C@@H](O)[C@H](O)[C@@H](CO)O[C@@H]2S1 [Compound 9c]", "remarkable selectivity"],
  ["CCC1=N[C@@H]2[C@@H](O)[C@H](O)[C@@H](CO)O[C@@H]2S1 [Compound 9b]", "remarkable selectivity"]
]}
